- Experimental context: 530 K; Liquid
Measured parameter: vapor or sublimation pressure (kPa)

See these solved cases before continuing.
{"columns": ["Smiles data", "Measured parameter", "Meas value"],
 "data": [
  ["CCCCCCCCCCCCCCCCCCCCCCCCCCCCCCCCCC", "vapor or sublimation pressure", 0.0944],
  ["CCCCCCCCCCCCCCCCCCCCCCCCCCCCCCCCCCCC", "vapor or sublimation pressure", 0.0498]
]}

I = CCCCCCCCCCCCCCCCCCCCCCCCCCCCCCCCCCCCC
II = CCCCCCCCCCCCCCCCCCCCCCCCCCCCCCCC
III = CCCCCCCCCCCCCCCCCCCCCCCCCCCCCCCCCCC
Query: List from greatest to least vapor or sublimation pressure. API: response body holds the labels in the requested order.
Reply: II, III, I

a = CCCCCCCCCCCCCCCCCCCCCCCCCCCCCCCCCCCCCC
b = CCCCCCCCCCCCCCCCCCCCCCCCCCCCCCCCC
c = CCCCCCCCCCCCCCCCCCCCCCCCCCCCCCC
Query: Form: Sort by [vapor or sublimation pressure] Order [ ascending ] Response format: the labels, sorted as the prompt asks.
Reply: a, b, c

###

- Experimental context: 420 K; Liquid
Measured parameter: vapor or sublimation pressure (kPa)

1 = CCCCCCCCCCCCCCCCCCCCCCCCCCCCCCCCC
2 = CCCCCCCCCCCCCCCCCCCCCCCCCCCCCCC
3 = CCCCCCCCCCCCCCCCCCCCCCCCCCCCCCCC
4 = CCCCCCCCCCCCCCCCCCCCCCCCCCCCCCCCCCC
5 = CCCCCCCCCCCCCCCCCCCCCCCCCCCCCCCCCCCCCC
Query: Ascending by vapor or sublimation pressure, please. Response format: the labels, sorted as the prompt asks.
Reply: 5, 4, 1, 3, 2
(5: 4.95e-06 kPa, 4: 2.46e-05 kPa, 1: 7.65e-05 kPa, 3: 0.000134 kPa, 2: 0.000236 kPa)

###

- Experimental context: 400 K; Liquid
Measured parameter: vapor or sublimation pressure (kPa)

The cases that follow already have their vapor or sublimation pressure on record.
{"columns": ["Compound", "vapor or sublimation pressure / kPa"],
 "data": [
  ["CCCCCCCCCCCCCCCCCCCCCCCCCCCCCCCCCCCC [hexatriacontane]", "1.7e-06"],
  ["CCCCCCCCCCCCCCCCCCCCCCCCCCCCCCCC [dotriacontane]", "1.95e-05"],
  ["CCCCCCCCCCCCCCCCCCCCCCCCCCCCCCCCCCCCCC [octatriacontane]", "5.03e-07"],
  ["CCCCCCCCCCCCCCCCCCCCCCCCCCCCCCC [hentriacontane]", "3.64e-05"]
]}

P = CCCCCCCCCCCCCCCCCCCCCCCCCCCCCCCCCC [tetratriacontane]
Q = CCCCCCCCCCCCCCCCCCCCCCCCCCCCCCCCCCC [pentatriacontane]
R = CCCCCCCCCCCCCCCCCCCCCCCCCCCCCCCCCCCCC [heptatriacontane]
S = CCCCCCCCCCCCCCCCCCCCCCCCCCCCCCCCC [tritriacontane]
Query: Sort ascending by vapor or sublimation pressure. // ordering of labels required in reply
Reply: R, Q, P, S

###

- Experimental context: 310 K; Liquid
Measured parameter: vapor or sublimation pressure (kPa)

{"columns": ["Smiles data", "Measured parameter", "Meas value"],
 "data": [
  ["CCCCCCCCCCCCCCCCCCCCCCCCCCCCCCCCCCCCCC", "vapor or sublimation pressure", "9.81e-14"],
  ["CCCCCCCCCCCCCCCCCCCCCCCCCCCCCCCCCCCCC", "vapor or sublimation pressure", "2.63e-13"],
  ["CCCCCCCCCCCCCCCCCCCCCCCCCCCCCCCCCC", "vapor or sublimation pressure", "5.39e-12"]
]}

P = CCCCCCCCCCCCCCCCCCCCCCCCCCCCCCC
Q = CCCCCCCCCCCCCCCCCCCCCCCCCCCCCCCCC
R = CCCCCCCCCCCCCCCCCCCCCCCCCCCCCCCCCCC
Query: Ascending sort, vapor or sublimation pressure. A ranking is expressed here by listing the labels in the requested order.
Reply: R, Q, P

a = CCCCCCCCCCCCCCCCCCCCCCCCCCCCCCCCCCCC
b = CCCCCCCCCCCCCCCCCCCCCCCCCCCCCCCC
Query: Recorded vapor or sublimation pressure values differ for a and b ; which one is higher? Mark your selection by writing its label.
Reply: b
